These measurements were taken from ChEMBL document CHEMBL3352397.

Reported half-life values for the following compounds.
assay: Half life in Sprague-Dawley rat at 20 mg/kg, po; type: ADME, organism-based; set-up: dose 20 mg/kg, route oral; settings: in vivo
Report the figure in min without appending any unit label.

As a guide, the following entries are already answered.
Cc1ccc(S(=O)(=O)NC[C@@H]2C[C@@H]3CCCC[C@@H]3N2C(=O)C[C@H](N)Cc2cc(F)c(F)cc2F)cc1; 151
N[C@@H](CC(=O)N1[C@H](CNS(=O)(=O)C(F)(F)F)C[C@@H]2CCCC[C@@H]21)Cc1cc(F)c(F)cc1F; 630

--- query ---
IN: I am curious: what half-life value has been reported for CCOC(=O)[C@@H]1C[C@@H]2CCCC[C@@H]2N1C(=O)C[C@H](N)Cc1cc(F)c(F)cc1F ?
OUT: 168
